B1: TSN (parent)
chain: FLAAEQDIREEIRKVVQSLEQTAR

variants of: B1; test: protein stability index of a GFP-peptide fusion (GPS, HEK-293T) (PSI 1-6); higher = more stable; settings: c terminus: a fixed tail appended;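 further: lentivirally expressed fusions sorted by FACS into six bins by GFP to DsRed ratio, PSI derived from sequencing read proportions per bin multiplied by bin number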
PROPERTY_NAME: protein stability index
// response body must contain only the number

1. E10G; 2.92

Provide one value: measured protein stability index of "I8R"
3.15

Give recorded protein stability index. "D7F"
2.52

For the variant "I12M" , report protein stability index.
1.94

For the variant "F1N" , give its reported protein stability index.
3.17

Write down protein stability index measured for item "A3T"
2

Determine its reported protein stability index: "Q21N"
1.83

Name the recorded protein stability index of the item "A3C" in your answer.
1.36

Provide only the value of recorded protein stability index for "T22C"
1.84
